# Target entity: CHMP6 MIM2 L178D (human)
# Assay overview: SPR
Property name: Kd

Binder	Property name	Experimental result
VPS4A MIT domain (VPS4A residues 1−84) (domain or fragment, human, UniProt Q9UN37 1-84, looked up) MTTSTLQKAIDLVTKATEEDKAKNYEEALRLYQHAVEYFLHAIKYEAHSDKAKESIRAKCVQYLDRAEKLKDYLRSKEKHGKKP	Kd	44.4 µM
